format: cell-based, Escherichia coli
testReadout: Chromogenic reaction of degrading herbicides in bacteria: MCPA

# molecule, result
measured = [
    ("QYD45: AAD-like enzyme, SEQ ID NO. 89 (protein, Synthetic polypeptide, QYD45, D45) MARPFDIAPLDATFGAIVTGVKLAGLDEACWRALHAAWLQYALLVFPNQHLARVEQIAFAKRFGPLEFEMAAISNVRADGSLRVETDNDDMMKILKGNMGWHADSTYMPVQAKGAVFSAEVVPTIGGQTGFADMRAAYDALDEDLKARVETLQAYHSLHYSQSRLGHETKKADGEYSGYGLHDGPVPLRPLVKTHPETGRKSLLIGRHAHAIPGMEPGESERFLQELIDFACQPPRVYRHNWAPGDAVLWDNRCLLHQATPWDMTQKRIMWHSRIAGDAAGETALAH", "Yes"),
]
